Data credit: PubChem BioAssay (NCI)

I'd appreciate it if you could supply TGI values for the items below.
# Test system: HOP-92 NSCLC
# assay-summary: NCI tumour cell line growth inhibition, 48 h
Where a SMILES comes first, the peptide text is derived from it. The star is where a group is joined. Trt = c1ccc(C(c2ccccc2)(c2ccccc2)*)cc1; Cbz = O=C(OCc1ccccc1)*

Which TGI value is on record for S=c1sc2c(s1)SC(c1ccccc1)CS2 (centres undefined) ?
> 100 µM

Which TGI value is on record for COC(=O)C(=O)Cc1nc2ccccc2s1 ?
> 100 µM

Which TGI value is on record for COc1nc(N=P(c2ccccc2)(c2ccccc2)c2ccccc2)cc(=O)n1C ?
> 100 µM

Which TGI value is on record for NC(=O)c1ccc2c(c1)-c1nc-2nc2[n-]c(nc3nc(nc4[n-]c(n1)c1ccc(C(N)=O)cc41)-c1ccc(C(N)=O)cc1-3)c1ccc(C(N)=O)cc21.[Co+2] ?
> 50 µM

Which TGI value is on record for CC(C)=CCc1cc2c(cc1O)C1=C(C(=O)C3=C(C1=O)S(=O)(=O)CCN3)C(C=C(C)C)O2 (centres undefined) ?
7.61 µM

Which TGI value is on record for O=C(Cc1ccccc1)NN1C(=O)C(Cl)C1c1ccccc1Cl (centres undefined) ?
> 100 µM

Which TGI value is on record for COC(=O)C(CO)NC(=O)C(CSC(c1ccccc1)(c1ccccc1)c1ccccc1)NC(=O)OCc1ccccc1 (centres undefined) (Cbz-Cys(Trt)-Ser-OMe; configuration not given here) ?
29.8 µM

Which TGI value is on record for Cc1c(C)c2c(c(N)c1C#N)C(=O)N(O)C2=O ?
> 100 µM

Which TGI value is on record for CCS(=O)C(=O)N(O)c1ccc(Cl)cc1 (centres undefined) ?
> 100 µM

Which TGI value is on record for O=[N+]([O-])c1ccc(SN=S=NSc2cccc(SN=S=NSc3ccc([N+](=O)[O-])cc3)c2)cc1 ?
> 100 µM

Which TGI value is on record for C=C1C(=O)O[C@H]2[C@H]1CC/C(COC(=O)c1cc(OC)c(OC)c(OC)c1)=C\CC[C@@]1(C)O[C@@H]21 ?
2.1 µM

Which TGI value is on record for C[N+](C)(CCCCCC[N+](C)(C)CCCN1C(=O)c2cccc3cccc(c23)C1=O)CCCN1C(=O)c2cccc3cccc(c23)C1=O ?
> 100 µM

Which TGI value is on record for Nc1nc2c(N)cc(C(F)(F)F)cc2nc1-c1ccccc1 ?
> 100 µM

Which TGI value is on record for CC(C)(CN1C(=O)C(Cl)=C(Cl)C1=O)CN1C(=O)C(Cl)=C(Cl)C1=O ?
18.1 µM

Which TGI value is on record for Cc1cccc(C2ON=C(c3ccccc3)N2C23CC4CC(CC(C4)C2)C3)c1 (centres undefined) ?
> 10 µM

Which TGI value is on record for COc1ccc(C2=Nc3c(nc(OC)[nH]c3=O)NC(c3ccccc3)C2)cc1 (centres undefined) ?
> 100 µM

Which TGI value is on record for CN(C)CCN(C)P12(Oc3ccccc3O1)Oc1c(Cl)c(Cl)c(Cl)c(Cl)c1O2 ?
92.7 µM

Which TGI value is on record for c1ccc(-c2oc(-c3ccccc3)c(CN3CCCCC3)c2CN2CCCCC2)cc1 ?
5.89 µM

Which TGI value is on record for CC(C)C1CNC(=O)C2(C=NC(C(C)C)CNC(=O)C3(C=N1)CCCO3)CCCO2 (centres undefined) ?
> 10 µM

###

# Tested on: RXF 393 renal
# assay-summary: NCI tumour cell line growth inhibition, 48 h; in the data active = GI50 below about 0.43 µM; inactive = the rest
Log the outcome using a class from true for active, false for inactive

Tell me the assay call for CC(C)(C)c1cc(C(=O)Nc2ccccc2C(=O)NCCN)cc(C(C)(C)C)c1 please.
false

Tell me the assay call for CO[C@H]1C[C@@H]2CC[C@@H](C)[C@@](O)(O2)C(=O)C(=O)N2CCCC[C@H]2C(=O)O[C@H]([C@H](C)C[C@@H]2CC[C@@H](OC(=O)C(C)(CO)CO)[C@H](OC)C2)CC(=O)[C@H](C)/C=C(\C)[C@@H](O)[C@@H](OC)C(=O)[C@H](C)C[C@H](C)\C=C/C=C/C=C/1C please.
true

Tell me the assay call for COc1cc(CNCCCCCCN2C(=O)c3cccc4cccc(c34)C2=O)ccc1O please.
false

Tell me the assay call for c1cc(N[C@@H]2CCNC2)nc(-c2cnc3ccc(-c4cn[nH]c4)cn23)c1 please.
false

Tell me the assay call for C#Cc1cccc(Nc2ncnc3cc(NC(=O)CCl)ccc23)c1 please.
false

Tell me the assay call for CCOC(=O)CSc1cc(Cl)c(C)cc1S(=O)(=O)/N=C(/N=C/c1ccc([N+](=O)[O-])s1)NNC please.
false

Tell me the assay call for Cn1cc(/C=C\[N+](=O)[O-])c2ccccc21 please.
false

Tell me the assay call for COc1cc([N+](=O)[O-])c(OC)cc1-c1nc2sc(C)c(C)n2c1/C(N)=N/C(=N)N please.
false

Tell me the assay call for NS(=O)(=O)c1ccc(Nc2cc(-c3ccc(O)c(F)c3)[nH]n2)cc1 please.
false

Tell me the assay call for NC1NC=NC2C1N=CN2C1OC(CO)C2[O][Sn][O]C21 (configuration not stated) please.
false

Tell me the assay call for O=C1NC(=S)S/C1=C\c1cn(-c2ccccc2)nc1-c1ccccc1 please.
false

Tell me the assay call for C[C@@]1([C@H](OC(=O)c2ccccc2)C(N)=O)CO1 please.
false

Tell me the assay call for CCOCC1(COCC)CCC(c2[nH]ncc2CN(C)CCNC)CC1 please.
false

Tell me the assay call for C=C1C(=O)O[C@H]2[C@H]1CC/C(COC(=O)c1cc(OC)c(OC)c(OC)c1)=C\CC[C@@]1(C)O[C@@H]21 please.
true

Tell me the assay call for CCOC(=O)c1c(-c2ccccc2)[n+](=O)c2cc(Cl)c(Cl)cc2n1[O-] please.
false

Tell me the assay call for O=C(CS(=O)(=O)c1nc2ccccc2nc1-c1ccccc1)Nc1ccc(F)cc1 please.
false

Tell me the assay call for CC(C)=CCc1cc2c(cc1O)C1=C(C(=O)C3=C(C1=O)S(=O)(=O)CCN3)C(C=C(C)C)O2 (configuration not stated) please.
false

Tell me the assay call for COc1ccc(-c2cc(-c3ccc(Nc4nc(Nc5ccccc5)nc(Nc5ccc(Cl)cc5)n4)cc3)nc(N)n2)cc1 please.
false

Tell me the assay call for O=C1CC(c2c[nH]c3ccc(F)cc23)C(=O)N1 (configuration not stated) please.
false

Tell me the assay call for O=C1NC(=NCc2ccccc2Cl)S/C1=C\c1ccc2ncccc2c1 please.
false

Tell me the assay call for CN1CCN(CC(=O)N(C)c2ccc(N=C(c3ccccc3)c3c(O)[nH]c4ccc(C#N)cc34)cc2)CC1 please.
false

Tell me the assay call for Cc1cc(=O)oc2ccc(OC/C=C3\CCC(=O)O3)cc12 please.
false

###

I'd appreciate it if you could supply GI50 values for the items below.
# Tested on: M14 melanoma
# assay-summary: NCI tumour cell line growth inhibition, 48 h

Which GI50 value is on record for CC(C)(C)c1cc(C(=O)Nc2ccccc2C(=O)NCCN)cc(C(C)(C)C)c1 ?
1.91 µM

Which GI50 value is on record for NC1NC=NC2C1N=CN2C1OC(CO)C2[O][Sn][O]C21 (stereo not drawn) ?
> 100 µM

Which GI50 value is on record for c1ccc(-c2oc(-c3ccccc3)c(CN3CCCCC3)c2CN2CCCCC2)cc1 ?
1.83 µM

Which GI50 value is on record for COc1ccc(C(O)c2cc3c(N)c(C(=O)Nc4ccc(Cl)cc4)sc3nc2C)cc1 (stereo not drawn) ?
1.74 µM

Which GI50 value is on record for CN(C)c1ccc(/C=C\c2ccnc3ccccc23)cc1 ?
4.42 µM

Which GI50 value is on record for COc1cc(/C=C2\C(=O)N(Cc3ccc(Cl)cc3)c3ccccc32)cc(OC)c1OC ?
2.45 µM

Which GI50 value is on record for O=C1[C@@H]2C(c3ccc(Br)cc3)=NO[C@@H]2C(=O)N1c1ccc(Cc2ccc(N3C(=O)[C@H]4C(c5ccc(Br)cc5)=NO[C@H]4C3=O)cc2)cc1 ?
> 40 µM

Which GI50 value is on record for CN=C(N)c1ccc(N=C(N)c2ccc(-c3ccc(C(N)=Nc4ccc(C(N)=NC)cc4)cc3)cc2)cc1 ?
82.2 µM

Which GI50 value is on record for C=C1C(=O)O[C@H]2[C@H]1CC/C(COC(=O)c1cc(OC)c(OC)c(OC)c1)=C\CC[C@@]1(C)O[C@@H]21 ?
1.27 µM

Which GI50 value is on record for Cn1cc(/C=C\[N+](=O)[O-])c2ccccc21 ?
37.1 µM

Which GI50 value is on record for CSC1=NC(=Nc2c(C)cccc2C)C2(CCC(C(C)(C)C)CC2)N1c1ccc(Cl)cc1 (stereo not drawn) ?
68.2 µM

Which GI50 value is on record for NC(N)=N/N=C/c1c(-c2ccsc2)nc2n1CCS2 ?
15.1 µM

Which GI50 value is on record for CCN(CC)c1ccc(/C=C/C(=O)c2ccc(Nc3nc(Nc4ccccc4)nc(Nc4ccccc4)n3)cc2)cc1 ?
3.02 µM
